molecular target: T1, hPRLR.mFc (soluble dimeric human PRLR) (Homo sapiens, UniProt P16471); assay: Surface plasmon resonance (Biacore T200), mAb-capture format; format: binding; conditions: 25° C., antibody-capture format, analyte hPRLR.mFc
T1 construct: dimeric (hPRLR.mFc)
T1 sequence (P16471 with tags, fused parts or gaps): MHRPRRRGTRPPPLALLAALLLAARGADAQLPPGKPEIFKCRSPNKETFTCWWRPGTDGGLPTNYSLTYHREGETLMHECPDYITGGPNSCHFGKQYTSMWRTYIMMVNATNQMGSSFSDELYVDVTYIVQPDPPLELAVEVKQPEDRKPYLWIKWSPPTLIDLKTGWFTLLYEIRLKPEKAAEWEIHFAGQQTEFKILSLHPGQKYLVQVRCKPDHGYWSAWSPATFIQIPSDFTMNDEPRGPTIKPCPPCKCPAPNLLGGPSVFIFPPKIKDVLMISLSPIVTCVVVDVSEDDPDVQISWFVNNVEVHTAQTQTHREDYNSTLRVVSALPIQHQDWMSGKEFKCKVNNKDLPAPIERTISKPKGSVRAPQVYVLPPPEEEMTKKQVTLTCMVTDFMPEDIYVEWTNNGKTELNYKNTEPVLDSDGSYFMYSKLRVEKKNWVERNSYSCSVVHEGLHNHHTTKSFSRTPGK
For each of the molecules below, state its T½.
Numbers only, in h.

Here are 2 molecules. What values of T½ were reported for them?
1. H1H6792P: anti-PRLR antibody, human IgG1 Fc; HCVR/LCVR SEQ ID NOs 130/138 (antibody, V domains shown, human IgG1 Fc) VH: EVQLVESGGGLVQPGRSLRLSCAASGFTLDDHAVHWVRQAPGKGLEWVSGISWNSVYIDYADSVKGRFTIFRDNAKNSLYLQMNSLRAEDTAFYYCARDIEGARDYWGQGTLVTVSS VL: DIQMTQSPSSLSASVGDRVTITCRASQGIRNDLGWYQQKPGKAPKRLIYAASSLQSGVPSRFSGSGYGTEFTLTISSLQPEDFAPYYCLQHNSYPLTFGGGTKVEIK
2. H1H6774P: anti-PRLR antibody, human IgG1 Fc; HCVR/LCVR SEQ ID NOs 34/42 (antibody, V domains shown, human IgG1 Fc) VH: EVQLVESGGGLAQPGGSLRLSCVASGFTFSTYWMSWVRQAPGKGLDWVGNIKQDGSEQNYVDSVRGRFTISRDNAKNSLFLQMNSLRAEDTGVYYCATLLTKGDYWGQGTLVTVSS VL: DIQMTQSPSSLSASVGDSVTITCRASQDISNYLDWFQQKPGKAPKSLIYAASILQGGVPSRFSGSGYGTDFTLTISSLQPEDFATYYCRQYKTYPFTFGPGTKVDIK

RESULT:
1: 2.03; 2: 2.15

Reference source for all entries: patent US9688764B2
